Measured values drawn from paper PMC5540273 for this set.

Tested on: INSR
measurement context: concentration: 1 μM, replicates: in singlicate; n = 1;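 note: KINOMEscan kinase panel screen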
experimental endpoint: %Inh
# do not omit the unit; it follows the number

Prompt line: Note down %Inh recorded for Cc1ccc(NC(=O)c2ccnc(N3CCN(C)CC3)c2)cc1-c1ccc(C(=O)NCC2CC2)cc1
Response line: 0%

Prompt line: Note down %Inh recorded for NS(=O)(=O)c1cccc(-c2ccc3ncc(N4CCOCC4)nc3c2)c1
Response line: 7%

Prompt line: Note down %Inh recorded for Fc1ccc(-c2ncn(CCCN3CCOCC3)c2-c2cccnc2)cc1
Response line: 4%

Prompt line: Note down %Inh recorded for O=C(NCCNc1ccnc(Nc2ccc(F)cc2)n1)Nc1ccccc1F
Response line: 0%

Prompt line: Note down %Inh recorded for C[C@@H](Oc1cc(-n2cnc3ccc(NC(=O)NC(C)(C)C)cc32)sc1C(N)=O)c1ccccc1Cl
Response line: 0%

Prompt line: Note down %Inh recorded for CN(C1=C(c2ccccc2)C(=O)NC1=O)c1ccccc1
Response line: 5%

Prompt line: Note down %Inh recorded for COc1cc2c(cc1OC[C@@H](O)CO)ncc1c3ccc(C#N)cc3[nH]c21
Response line: 0%

Prompt line: Note down %Inh recorded for O=C1Cc2cc(Nc3nc(NCc4cccc(S(=O)(=O)C(F)(F)F)c4)ncc3C(F)(F)F)ccc2N1
Response line: 0%

---

System: TTK
measurement context: concentration: 1 μM, replicates: in singlicate; n = 1
Please go through the items and note down their %Inh.
Entry rule: numbers only, all in %.

Prompt line: Note down %Inh recorded for O=C1Cc2cc(Nc3nc(NCc4cccc(S(=O)(=O)C(F)(F)F)c4)ncc3C(F)(F)F)ccc2N1
Response line: 0

Prompt line: Note down %Inh recorded for O=C(Nc1cccc(-c2nn3ncccc3c2-c2ccnc(Nc3cccc(C(F)(F)F)c3)n2)c1)c1c(F)cccc1F [GSK299495]
Response line: 6

Prompt line: Note down %Inh recorded for Fc1ccc(-c2ncn(CCCN3CCOCC3)c2-c2ccccn2)cc1 [SB-211742]
Response line: 0

Prompt line: Note down %Inh recorded for O=C(c1ccc(-c2cc(-c3c[nH]nc3-c3ccccn3)ccn2)cc1)N1CCOCC1 [GW812171]
Response line: 0

Prompt line: Note down %Inh recorded for O=C(NCCCN1CCOCC1)c1cccc(Nc2nccc(Nc3ccc(Oc4ccccc4)cc3)n2)c1 [GW663929]
Response line: 21

Prompt line: Note down %Inh recorded for O=C(NCCNc1ccnc(Nc2ccc(F)cc2)n1)c1cc2ccccc2s1 [GSK1379874]
Response line: 0

Prompt line: Note down %Inh recorded for [2H]C([2H])(c1cccc(C(F)(F)F)c1C)n1ccn2c(=O)nc(N3CCOCC3)cc12 [GSK2336394]
Response line: 0

Prompt line: Note down %Inh recorded for Cc1nnc(-c2ccc(C)c(-c3ccc(C(=O)Nc4ccc(NS(C)(=O)=O)cc4)cc3)c2)o1 [GW702865]
Response line: 0

Prompt line: Note down %Inh recorded for Cc1cccc(Cn2ccn3c(=O)cc(N4CCOCC4)nc23)c1 [GSK2297542]
Response line: 62

Prompt line: Note down %Inh recorded for CC(C)Oc1ccc2c(-c3ccnc(Nc4ccc(N5CCN(C)CC5)cc4)n3)cnn2n1 [GW696155]
Response line: 89

Prompt line: Note down %Inh recorded for O=C(NCCNc1ccnc(Nc2ccc(F)cc2)n1)Nc1ccccc1F [GSK1379880]
Response line: 0

Prompt line: Note down %Inh recorded for Cc1c(Cn2c(C)nn3c(=O)cc(N4CCOC(C)C4)nc23)cccc1C(F)(F)F (stereo not shown) [GSK2344444]
Response line: 6

Prompt line: Note down %Inh recorded for Cc1ccc(NC(=O)c2ccnc(N3CCN(C)CC3)c2)cc1-c1ccc(C(=O)NCC2CC2)cc1 [GW775604]
Response line: 0

Prompt line: Note down %Inh recorded for COc1cc2c(cc1OC[C@@H](O)CO)ncc1c3ccc(C#N)cc3[nH]c21
Response line: 0

Prompt line: Note down %Inh recorded for O=c1cc(N2CCOCC2)nc2n(Cc3cccc(Cl)c3Cl)c(C3CC3)nn12 [GSK2358994]
Response line: 0

Prompt line: Note down %Inh recorded for NS(=O)(=O)c1cccc(-c2ccc3ncc(N4CCOCC4)nc3c2)c1 [GSK1535721]
Response line: 6

Prompt line: Note down %Inh recorded for Cc1cccc(-c2nc(Nc3ccc4ncsc4c3)c3ccccc3n2)n1 [GW867588]
Response line: 55

Prompt line: Note down %Inh recorded for COc1ccc(Nc2nccc(N3CCC(NC(=O)Nc4cc(C)ccc4C)C3)n2)cc1 (stereo not shown) [GSK1379741]
Response line: 0

Prompt line: Note down %Inh recorded for CC(C)(C)n1cnc2c(N)ncnc21 [SKF-97359]
Response line: 0
